Settings: 298.15 K; 101 kPa; Liquid
MEASURED_ATTRIBUTE: viscosity (mPa·s)
// note: answer is a bare numeric in mPa·s

Past entries and their recorded results:
[[record]]
compound = "CC(C)=O"
numeric_result = 0.3

[[record]]
compound = "CCOC=O [ethyl methanoate]"
numeric_result = 0.4

[[record]]
compound = "CCCCn1cc[n+](C)c1.F[B-](F)(F)F [1-butyl-3-methylimidazolium tetrafluoroborate]"
numeric_result = 110.3

[[record]]
compound = "COC(C)=O [methyl ethanoate]"
numeric_result = 0.4


Note: attention shifts to another entry.
Problem: Please list viscosity recorded for the compound COC=O [methyl methanoate]
Solution: 0.3
